Values were extracted from PubChem BioAssay.

Test Protocol: inhibitors of mutant huntingtin aggregation, primary screen, imaging, exon1htt(103Q)mCFP cells, high-content imaging (AID 483);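 note: compound exposure lasted 3 days before fixation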
Setup Conditions: exon1htt(103Q)mCFP cell line, aggregate imaging, at 2 µM
Calls of active or inactive are those of the source.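 Rule for the calls: active = visual image review flags a hit and inhibition of aggregation exceeds 20%; inconclusive = visual hit but inhibition at or below 20%; inactive = no hit on visual image review.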
Hi! Could you answer with just one of these? Yes = active, No = inactive

Look over these answered cases.
- Compound: "COc1ccc(-c2ccc(-c3nnn(CC(C)=O)n3)cc2)cc1"
  Assigned Category: "No"
- Compound: "CCOC(=O)C1=C(C)N=C2SCCC(=O)N2C1c1cc(Br)ccc1OC (centres undefined)"
  Assigned Category: "No"
- Compound: "CCc1cccc2c(=O)c(C(=O)N3CCCCCC3)c[nH]c12"
  Assigned Category: "No"
- Compound: "Cc1ccc(-c2cc3nc4c(c(=O)n3[nH]2)CCCC4)cc1"
  Assigned Category: "No"
- Compound: "Cc1oc(-c2ccccc2F)nc1CS(=O)(=O)CC(=O)NCc1ccco1"
  Assigned Category: "No"
- Compound: "COc1ccc(OCC(=O)N2CCN(C(=O)COc3ccc(Br)cc3)CC2)cc1"
  Assigned Category: "No"
- Compound: "CN(C)c1ccc(CNCCC2(O)CCOC(C)(C)C2)cc1 (centres undefined)"
  Assigned Category: "No"
- Compound: "COc1ccc(NC(=O)CS(=O)CC(=O)Nc2cc(Cl)ccc2OC)cc1 (centres undefined)"
  Assigned Category: "No"
- Compound: "Cn1c(-c2ccc(F)cc2)cnc1SCC(=O)Nc1ccccc1N1CCOCC1"
  Assigned Category: "Yes"
- Compound: "CCOC(=O)c1ccc(NC(=O)CCc2nc(-c3cccc(C)c3)no2)cc1"
  Assigned Category: "No"

Inquiry: For CN(c1ccc(OCc2nnc(-c3ccccc3)o2)cc1)S(=O)(=O)c1ccccc1 , which call appears in the assay record?
Reply text: No

Inquiry: For Cc1cc(NC(=O)CCC(=O)N(c2cccnc2)C(C(=O)NC2CCCC2)c2ccccc2F)no1 (centres undefined) , which call appears in the assay record?
Reply text: No

Inquiry: For Cc1cc(C)n2c(SCCN3C(=O)c4ccccc4C3=O)nnc2n1 , which call appears in the assay record?
Reply text: No

Inquiry: For Cc1nc2sc(C(c3cccs3)N3CCOCC3)c(O)n2n1 (centres undefined) , which call appears in the assay record?
Reply text: No

Inquiry: For O=C(Nc1ccccc1)N1CCC(c2ccccc2)C1 (centres undefined) , which call appears in the assay record?
Reply text: No

----------
Test Protocol: DUSP6 inhibitors restoring Erk phosphorylation by chemical complementation, primary imaging in DUSP6-transfected HeLa (AID 609)
Setup Conditions: HeLa MKP-3 transfected, phospho-Erk imaging KS statistic; measured here: cell density z-score; at 10 µM; cells stimulated with TPA for 15 min
Metric: z-score
Note: the reply should be a number with no unit written.

In the examples that follow, each entry is paired with its recorded z-score.
- Compound: "COc1cc(N2CCCC2)c(OC)cc1/C=c1/sc2nc3ccccc3n2c1=O"
  Numeric Readout: -1.29
- Compound: "N#C/C(=C\\c1c(N2CCC(C(N)=O)CC2)nc2ccccn2c1=O)S(=O)(=O)c1ccccc1"
  Numeric Readout: 1.56
- Compound: "CCCc1cc(Nc2c(C)n(C)n(-c3ccccc3)c2=O)n2c(nc3ccccc32)c1C#N"
  Numeric Readout: -1.08

Recorded z-score (compound COC(=O)/C=c1/s/c(=C(/C#N)C(=O)N2CCCCC2)n(-c2ccccc2)c1=O ): -0.699

Recorded z-score (compound CCOc1ccc(S(=O)(=O)N(C)CCO)cc1-c1nc2c(C(C)(C)C)nn(C)c2c(=O)[nH]1 ): 0.365

----------
Tested Target: Voltage-gated potassium channel subunit beta-2 (Rattus norvegicus) (UniProt P62483)
Sequence (P62483 whole entry, looked up): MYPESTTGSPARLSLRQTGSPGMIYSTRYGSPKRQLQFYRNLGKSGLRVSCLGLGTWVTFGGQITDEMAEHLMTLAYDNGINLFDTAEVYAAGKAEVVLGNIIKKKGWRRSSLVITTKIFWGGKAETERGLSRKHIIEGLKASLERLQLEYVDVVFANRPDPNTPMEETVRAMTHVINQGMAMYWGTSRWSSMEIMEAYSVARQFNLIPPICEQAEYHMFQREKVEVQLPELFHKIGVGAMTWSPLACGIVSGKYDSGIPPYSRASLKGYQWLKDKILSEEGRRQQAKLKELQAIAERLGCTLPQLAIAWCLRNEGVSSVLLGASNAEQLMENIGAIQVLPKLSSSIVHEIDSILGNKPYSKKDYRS
Test Protocol: KvBeta enzyme negative modulators, primary screen, biochemical, NADPH fluorescence (AID 622);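 note: slope of raw intensity against log time taken from 70 to 1610 s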
Setup Conditions: recombinant KvBeta, 4-cyanobenzaldehyde reduction, at 10 µM, stronger effect = higher value
Active and inactive are the calls of the source.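 The calls were made as follows: active = fluorescence slope higher than the sample average by over 3 SD (cut at about -0.22 in these data, passing the limit was not always enough); inactive = the rest.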
Metric: fluorescence slope

In the examples that follow, each entry is paired with its recorded fluorescence slope.
- Molecule: "CCCC(=O)Nc1nnc(CC(=O)N2CCCC2)s1"
  fluorescence slope: "-0.31 (inactive)"
- Molecule: "CCC(C)(C)NC(=O)CN(Cc1ccc2c(c1)OCO2)C(=O)CCC(=O)Nc1ccccn1"
  fluorescence slope: "-0.403 (inactive)"
- Molecule: "CCOc1ccc(N2C(=O)CC(N3CC(C)OC(C)C3)C2=O)cc1 (stereo unspecified)"
  fluorescence slope: "-0.357 (inactive)"
- Molecule: "CC1(CC(=O)O)C(=O)N=C2C=CC=CN21 (stereo unspecified)"
  fluorescence slope: "-0.318 (inactive)"
- Molecule: "COc1cc2c(cc1OC)-c1nnc(-c3cccs3)n1C(C)(C)C2"
  fluorescence slope: "-0.601 (inactive)"
- Molecule: "CC(C)C(NC(=O)OCc1ccccc1)C(=O)OCC(=O)NCc1ccco1 (stereo unspecified)"
  fluorescence slope: "-0.366 (inactive)"
- Molecule: "CCOC(=O)c1c(C)c(C(=O)NCCN2CCOCC2)c(C)n1C"
  fluorescence slope: "-0.496 (inactive)"
- Molecule: "O=C(Nc1ccccc1)C1=C(O)CC(c2ccoc2)CC1=Nc1ccccc1 (stereo unspecified)"
  fluorescence slope: "-0.422 (inactive)"
- Molecule: "CC1CCCCN1CCNS(=O)(=O)c1ccc2c(c1)oc(=O)n2C (stereo unspecified)"
  fluorescence slope: "-0.424 (inactive)"
- Molecule: "CC(C)(C)c1nnc(NC(=O)C2CCN(c3ncccn3)CC2)s1"
  fluorescence slope: "-0.512 (inactive)"

Next molecule, please.
Recorded fluorescence slope (molecule COc1ccc(OC)c(S(=O)(=O)N2CCC(C(=O)NCc3ccccc3OC)CC2)c1 ): -0.517 (inactive)

----------
Test Protocol: inhibitors of E-selectin induction by TNFa, primary screen, imaging, HUVEC, immunofluorescence, MLSMR starter and 10KST1 sets (AID 487);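 note: 100% = median nuclei count of all wells on the same plate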
Setup Conditions: HUVEC TNFalpha-induced E-selectin immunofluorescence imaging, at 2 µM; measured here: cell number, toxicity
// reported nuclei count for each item listed
Answer in %, number only, no unit symbol.

In the examples that follow, each entry is paired with its recorded nuclei count.
- Compound: "COc1ccc(S(=O)(=O)Cc2ccc(C(=O)NCCc3ccc(S(N)(=O)=O)cc3)o2)cc1"
  Unit Tag: "%"
  nuclei count: 114
- Compound: "CCCn1c(-c2ccc(F)cc2)cnc1SCC(=O)O"
  Unit Tag: "%"
  nuclei count: 106
- Compound: "CC(C)OC(=O)CSc1nc2cccnc2n1C1CCCCC1"
  Unit Tag: "%"
  nuclei count: 106
- Compound: "O=C(CSc1nnc(C2CC2)n1Cc1ccccc1)c1ccc(S(=O)(=O)N2CCOCC2)cc1"
  Unit Tag: "%"
  nuclei count: 112
- Compound: "COC(=O)c1cc(Br)c(=O)n(-c2cc(C)on2)c1"
  Unit Tag: "%"
  nuclei count: 115
- Compound: "Cc1cc(C(=O)NCc2cccnc2)n(-c2ccccc2)n1"
  Unit Tag: "%"
  nuclei count: 127

Next compound, please.
Recorded nuclei count (compound CN(CCNC(=O)c1ccc(/C=N/O)nc1)Cc1ccccc1 ): 182

----------
Test Protocol: inhibitors of poly I:C-induced TLR3 signaling, primary screen, cell-based, poly I:C stimulus, luciferase, 10K MLSCN set (AID 602277)
Setup Conditions: HEK293-TLR3 RL24 IRF3 luciferase reporter, at 10 µM, stronger effect = higher value
Metric: inhibition (%)
Answer in %, number only, no unit symbol.

In the examples that follow, each entry is paired with its recorded inhibition.
- Compound: "COCCN(C(=O)CCC(=O)Nc1ccccn1)C(C(=O)NC1CCCC1)c1ccc(OC)cc1 (stereo not given)"
  inhibition (%): 23.2
- Compound: "CCC1(NC(C)=O)CC2CC1CC2NC(C)=O (stereo not given)"
  inhibition (%): 3.3
- Compound: "CC1=CCC(C(C)(C)NC(=O)c2ccccc2)C/C1=N\\O (stereo not given)"
  inhibition (%): 20.6
- Compound: "Cc1cccc2c(=O)oc(-c3ccc4c(c3)C(=O)N(CC3CCCO3)C4=O)nc12 (stereo not given)"
  inhibition (%): 14.4

Recorded inhibition (compound O=C1c2ccccc2C(Nc2ccc(-c3nc4ccccc4[nH]3)cc2)N1Cc1ccco1 (stereo not given) ): -47.4

----------
// reported NADPH fluorescence slope for each item listed
Tested Target: Voltage-gated potassium channel subunit beta-2 (Rattus norvegicus) (UniProt P62483)
Test Protocol: KvBeta positive modulators, primary screen, biochemical, NADPH fluorescence (AID 623);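 note: fluorescence intensity change per second fitted from 20 to 320 s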
Setup Conditions: Recombinant KvBeta, NADPH fluorescence decrease slope, 10 min; at 10 µM; stronger effect = lower value
Note: the reply should be a number with no unit written.

In the examples that follow, each entry is paired with its recorded NADPH fluorescence slope.
- Compound: "O=C(CCS(=O)(=O)c1cccc2nonc12)Nc1cccc2c1CCCC2"
  NADPH fluorescence slope: "1.6e-05"
- Compound: "CCOC(=O)C1CCCN(c2c(NCc3ccco3)c(=O)c2=O)C1 (configuration not stated)"
  NADPH fluorescence slope: "-1.5e-05"
- Compound: "Cc1ccc(NC(=O)Cn2nc(C)c3ccccc3c2=O)cc1"
  NADPH fluorescence slope: -0.000121
- Compound: "COc1cccc(C2=CC(c3ccc(N(C)C)cc3)n3nnnc3N2)c1 (configuration not stated)"
  NADPH fluorescence slope: "-3.6e-05"
- Compound: "CCCCC(=O)NCCNc1nc2c(c(=O)n(C)c(=O)n2C)n1Cc1ccccc1"
  NADPH fluorescence slope: "-5.2e-06"

Recorded NADPH fluorescence slope (compound COC(=O)C1CCN(c2nc3ccccc3nc2C(C#N)C(=O)NCCc2ccccc2)CC1 (configuration not stated) ): -5.2e-05

Recorded NADPH fluorescence slope (compound CCc1cc(C(=O)OC)c(NC(=O)CCC(=O)O)s1 ): 3.6e-05

Recorded NADPH fluorescence slope (compound C=CCOc1ccc(C2/C(=C(\O)c3ccc(F)cc3)C(=O)C(=O)N2CCCN(C)C)cc1 (configuration not stated) ): -4.3e-05

Recorded NADPH fluorescence slope (compound CCc1nnc(NC(=O)c2ccc(S(=O)(=O)N(CC(C)C)CC(C)C)cc2)o1 ): -1.1e-05

Recorded NADPH fluorescence slope (compound COc1ccc(Nc2nnc(C)c3ccccc23)cc1C(N)=O ): -0.000141

Recorded NADPH fluorescence slope (compound COc1ccc(Br)cc1CNC(=O)CCc1nc(-c2ccc(C)cc2)no1 ): -6.4e-07

Recorded NADPH fluorescence slope (compound CC1N(O)C(c2ccc(Cl)cc2Cl)N(O)C1(C)C (configuration not stated) ): 9.2e-07

Recorded NADPH fluorescence slope (compound c1ccc2c(c1)CCOC2CNCCCN1CCCCC1 (configuration not stated) ): -6.5e-05
